# Test system: A. fumigatus
# assay_text: Antifungal screen of matrix-synthesis aurones in 96-well plates, A. fumigatus
# Assay type: cell-based, Aspergillus fumigatus
# measurement_conditions: @12.5 μg/ml
Label criterion not met if AF percent inhibition falls below 40%; label criterion met in every other case.

INSERT INTO measurements (smiles_record, label_class) VALUES
  ('CC(C)=CCc1c(O)cc2c(c1O)C(=O)C(=Cc1ccc(O)c(O)c1O)O2', 'criterion not met'),
  ('CCOc1ccccc1C=C1Oc2cc(O)c(CC=C(C)C)c(O)c2C1=O', 'criterion met'),
  ('CC(C)=CCc1c(O)cc2c(c1O)C(=O)C(=Cc1ccccc1C)O2', 'criterion not met'),
  ('Cc1cc(C)c(C=C2Oc3cc(O)cc(O)c3C2=O)c(C)c1', 'criterion met'),
  ('O=C1C(=Cc2ccc(Oc3ccccc3)cc2)Oc2cc(O)cc(O)c21', 'criterion met'),
  ('CC(C)=CCc1c(O)cc2c(c1O)C(=O)C(=Cc1c(C)cc(C)cc1C)O2', 'criterion met'),
  ('CC(C)=CCc1c(O)cc2c(c1O)C(=O)C(=Cc1cccc(O)c1O)O2', 'criterion not met'),
  ('CCOc1ccc(C=C2Oc3cc(O)c(CC=C(C)C)c(O)c3C2=O)cc1OC', 'criterion met'),
  ('O=C1C(=Cc2ccc(F)cc2F)Oc2cc(O)cc(O)c21', 'criterion met'),
  ('CC(C)=CCc1c(O)cc2c(c1O)C(=O)C(=Cc1c(C)cccc1C)O2', 'criterion not met'),
  ('O=C1C(=Cc2cccc(O)c2O)Oc2cc(O)cc(O)c21', 'criterion not met');
